Tested on: MS2 coat protein
Assay: apparent Kd, MS2 coat protein; higher = weaker binding; RNA-MaP array; FMN 200 µM where present
Settings: designed as: OFF switch for flavin mononucleotide; no ligand
Measurement Type: apparent Kd (nM)
Give just the numeric value; nM need not be written.

QUERY: Item CCGCAAAAUGAGGAUAUCGUAUCGGAUACGAUACGAGAAGGCGUAACAUGAGGAUCACCCAUGUGUCCUAGCGG has what recorded apparent Kd?
RESULT: 14.3

QUERY: Item CCGGAAGUAGAGGAUAUCGUAUCGGAUACGAUACGAGAAGGCUAUACAUGAGGAUCACCCAUGUGUCCUACCGG has what recorded apparent Kd?
RESULT: 24.6

QUERY: Item UUUUCGGCAGGAUAUACAUGAGGAUCACCCAUGUAAAUUUUUCGUUUAACUUGAAUGUGUAGAAGGGCCAUUUU has what recorded apparent Kd?
RESULT: 23.3

QUERY: Item UUUUAACAUGAGGAUCACCCAUGUGAGGAUAUCGAAAUUUAUAUUAAUAUUUAUAAUACGAGAAGGCACAUUUU has what recorded apparent Kd?
RESULT: 85

QUERY: Item GGAAAUCGUGUAGGAUAUGCAUGGCGAAGCUACGCAGAAGGACAUGAGGAUCACCCAUGUUAUAGCGUCCGAGAAAGGAUGCAA has what recorded apparent Kd?
RESULT: 11

QUERY: Item GAAUAGGCAGGAUAUACAUGAGGAUCACCCAUGUGCCUGCGAAAGGUACGUUCGAAAGGUAGAAGGGCCUAAAC has what recorded apparent Kd?
RESULT: 12.1

QUERY: Item GUAAAUCAUGUAGGAUAUGCAUGGCGAAGCUACGCAGAAGGACAUGAGGAUCACCCAUGUGCUAGCUACCGAGUUCGGUGGCAA has what recorded apparent Kd?
RESULT: 77.1

QUERY: Item GUCAGCUCGUGAGGAUAUACAUGUGCUGGAUACAGCACUAUUAAGUUCACAUGAGGAUCACCCAUGUAGAAGGCACGAGCUGAU has what recorded apparent Kd?
RESULT: 15.8

QUERY: Item AGAUAGUCAGGAUAUACGUGGAUGGAACACUUAUUUCCACUACAUGAGGAUCACCCAUGUAGAAGGGACUAUCA has what recorded apparent Kd?
RESULT: 17.8

QUERY: Item ACAAAACAUGAGGAUCACCCAUGUGAGGAUAUGCGAAACAAACAAACAAACAAACAAAGCAGAAGGCACAACAA has what recorded apparent Kd?
RESULT: 22.7

QUERY: Item AGCGGCGCGGACCACCGCAAAACCAGAAGGACAUGAGGAUCACCCAUGUAACAAAACAGGGCGGUGUAGGAUAUGGCAGACCCA has what recorded apparent Kd?
RESULT: 10.8

QUERY: Item GUGUAGCAAGGAUAUACAUGAGGAUCACCCAUGUGAAUAAGAUAGAAUAAGAUAAAGUGUAGAAGGUGCAGUGU has what recorded apparent Kd?
RESULT: 39

QUERY: Item AAUCGAUCAACAGGAUAUGCGCAAUGAUCUGAACAUGAGGAUCACCCAUGUGCAGAAGGGUUGGUCAUCUUUUGGGACGAGACA has what recorded apparent Kd?
RESULT: 101

QUERY: Item GGGUAGUGAGGAUAUCGUUGUUAGGAGGAGUAGGUAGGAGGCGAGAAGGCACAUGAGGAUCACCCAUGUAUGGA has what recorded apparent Kd?
RESULT: 36.2

QUERY: Item UAAUUGUGAGGAUAUUCGUAGUUCUCGGAGACGAGAAUUACGGAGAAGGCACAUGAGGAUCACCCAUGUUCCUU has what recorded apparent Kd?
RESULT: 18.3
